Recorded TGI by entry
- Tested on: OVCAR-8 ovarian
- test: NCI tumour cell line growth inhibition, 48 h

Observe how each entry below is paired with its result.
-- ask Specify reported TGI for the compound shown: Nc1c(C(=O)Nc2ccccc2)[n+]([O-])c2ccccc2[n+]1[O-]
-- reply > 100 µM

-- ask Determine its reported TGI: O=Nc1ccc2ccccc2c1O
-- reply 6.63 µM

-- ask Give reported TGI value for O=c1[nH]cnc2[nH]ncc12
-- reply > 5000 µM

-- ask Report TGI, nothing else, for this compound: NC(=O)C(c1ccccc1)N1CCOCC1 (centres undefined)
-- reply > 100 µM

-- ask Please list TGI recorded for the compound O=C1C(Br)=CC2(C=C1Br)CCNC1=C2C(=O)c2cccnc2C1=O
-- reply 32.4 µM

-- ask Using known records, supply TGI for CC(C)c1ccc(/C=C2\CSCC3=C2NC(=S)NC3c2ccc(C(C)C)cc2)cc1 (centres undefined)
-- reply > 100 µM

-- ask Supply recorded TGI for COc1cccc(N(CN2CC=CC2=O)C(C)=O)c1 here.
-- reply > 100 µM

-- ask Tell us which TGI value is on record for CN(NC(=O)CCCl)C1=NCCCCN1
-- reply > 100 µM

Others:
-- ask Please give measured TGI of the following entry: Cc1ccc(SC2=CC(=O)c3nc4ccccc4c4ccnc2c34)cc1
-- reply 41.2 µM

-- ask Provide TGI value for the following compound: Cc1nc2ccc(S(=O)(=O)O)cc2c(=O)n1-c1ccc(C(=O)NN2C(=O)C(Cl)C2c2ccccc2O)cc1 (centres undefined)
-- reply > 100 µM

-- ask Item CCOC(=O)/C=C/C(C(=O)/C=C/c1ccc(O)c(OC)c1)=C(O)\C=C\c1ccc(O)c(OC)c1 : provide TGI
-- reply 5.91 µM

-- ask Input O=C(N/N=C/c1ccc([N+](=O)[O-])cc1)c1ccc2nc(-c3ccc(Cl)cc3)[nH]c2c1 , output reported TGI.
-- reply 13.7 µM
